Test system: A549 NSCLC
PROTOCOL_DETAILS: NCI tumour cell line growth inhibition, 48 h

# COMPOUND, ASSAY_TARGET, GI50
records = [
    ("Nc1ccccc1C#C/C=C\\C#Cc1ccc(OCCCNC(=O)c2cc3ccccc3[nH]2)cc1", "A549 NSCLC", "11.6 µM"),
    ("Cc1ncc(C(=O)Nc2ccc(CN3CCN(C)CC3)c(C(F)(F)F)c2)cc1C#Cc1cnc2cccnn12", "A549 NSCLC", "0.32 µM"),
    ("COc1ccc(-c2cs/c(=N\\N=C\\c3ccc(O)cc3O)n2/N=C/c2ccc(O)cc2O)cc1", "A549 NSCLC", "1.89 µM"),
    ("COc1ccccc1C#Cc1ccccc1C#CCCCCO", "A549 NSCLC", "16.3 µM"),
    ("C[C@@H]1C[C@H](C)CN(S(=O)(=O)c2ccc3c(NO)c4ccc(S(=O)(=O)N5C[C@H](C)C[C@H](C)C5)cc4c(N=O)c3c2)C1", "A549 NSCLC", "0.17 µM"),
    ("COc1cc(OC)c(C(=O)/C=C/c2cc3c(cc2OCc2ccccc2)OC(C)(C)CC3)cc1CC=C(C)C", "A549 NSCLC", "8.92 µM"),
    ("COc1cccc(/C(C#N)=C/c2nc3c(N4CCOCC4)nc(Cl)nc3n2C)c1", "A549 NSCLC", "1.57 µM"),
    ("COc1cc2c(c(OC)c1OC)-c1ncc3c(OC)c(OC)c(OC)cc3c1C2", "A549 NSCLC", "27.7 µM"),
    ("COc1cc2nc(SCc3cc(OC)c(OC)c(OC)c3)n(Cc3ccccc3)c(=O)c2cc1OC", "A549 NSCLC", "3.14 µM"),
    ("CCC(O)c1ccc(Br)cc1NC(=O)c1cccc(Cl)c1 (stereo not given)", "A549 NSCLC", "19.5 µM"),
]

----------
Reported TGI is given for each of the following compounds.
Tested on: UACC-257 melanoma
PROTOCOL_DETAILS: NCI tumour cell line growth inhibition, 48 h

# COMPOUND, VALUE_COMPARATOR, TGI, µM
rows = [
    ("Cc1nc(-c2ccccc2)n2nc(NCCCN3CCOCC3)ncc12", ">", 25),
    ("COc1cc2c(cc1OC)C(=O)N(c1ccc(O)cc1)C2=O", ">", 100),
    ("CC(C)(C)OC(=O)NC1CC2(C=C(Br)C(=O)C(Br)=C2)OC1=O (stereo unspecified)", "=", 13),
    ("CC(=O)Oc1ccc(C23c4ccccc4C2(OC(C)=O)c2cc(OC(C)=O)ccc23)cc1 (stereo unspecified)", "=", 60.8),
    ("CCOC(=O)c1[nH]c(-c2[nH]c(-c3[nH]c(-c4[nH]c(C(=O)OCC)c(C)c4C(=O)OCC)c(C(=O)OCC)c3C)c(C)c2C(=O)OCC)c(C(=O)OCC)c1C", ">", 100),
    ("CC1=C[C@H]2c3c([nH]c4ccccc34)C(c3c[nH]c4ccccc34)[C@H]2CC1 (stereo partly specified)", "=", 27.9),
    ("O=C1c2cc(Cl)ccc2NC(=NC2CCCC2)C2CSCN12 (stereo unspecified)", ">", 100),
    ("CN(C(=O)C12C3C4C5C3C1(C(=O)C13C6C7C8C6C1C8C73)C5C42)C(C)(C)C (stereo unspecified)", ">", 50),
    ("CCC[CH2][Sn]([Cl])([Cl])[CH2]CCC", "=", 2.26),
    ("NS(=O)(=O)c1ccc(-n2nc3c(c2-c2ccc(Cl)cc2)Cc2ccccc2-3)cc1", "=", 39.5),
    ("Clc1ccc(C(c2ccccc2Cl)C(Cl)Cl)cc1 (stereo unspecified)", "=", 37.2),
    ("O=C(O)CCC(=O)c1ccc2c(c1)C(C(=O)O)CC2 (stereo unspecified)", ">", 100),
    ("Cn1c(-c2c(N)n(Nc3cccc(Cl)c3)c3nc(C#N)c(C#N)nc23)nc2ccccc21", "=", 15.9),
    ("OC1(c2ccc(-c3ccccc3)cc2)c2ccccc2C2=NCCN21 (stereo unspecified)", ">", 100),
    ("COC(=O)C1Cc2cc3c(cc2C1=O)CCCC3 (stereo unspecified)", ">", 100),
    ("CC(=O)OCC1OC(n2cc(F)c(=O)[nH]c2=O)C(NC(=O)OCc2ccccc2)C(OC(C)=O)C1OC(C)=O (stereo unspecified)", ">", 100),
    ("COc1cc(F)c(F)c(Nc2ccc(I)cc2F)c1NS(=O)(=O)C1(C[C@H](O)CO)CC1", "=", 0.2),
    ("O=C1c2ccccc2-[n+]2ccc3c([nH]c4ccccc43)c21", "=", 1.88),
    ("COc1ccc(C2OC(=O)c3ccc4ccccc4c32)c(C)c1 (stereo unspecified)", ">", 100),
    ("COc1cc2ncn(-c3cc(OCc4ccccc4C(F)(F)F)c(C(=O)N(C)C)s3)c2cc1OC", ">", 25),
    ("Cn1c(C(=O)c2ccncc2)cc2ccccc21", ">", 100),
]
